- Test system: Staphylococcus aureus
- assay.protocol: Antibacterial activity against methicillin-resistant Staphylococcus aureus
- Type: functional
reported.property: MIC

1. CC[C@@H](C(=O)[C@@H](C)[C@@H](O)[C@H](C)[C@@H]1O[C@@H]([C@@H](CC)C(=O)NCc2cn([C@H]3C[C@H](n4cc(F)c(=O)[nH]c4=O)O[C@@H]3CO)nn2)CC[C@@H]1C)[C@H]1O[C@]2(C=C[C@@H](O)[C@]3(CC[C@@](C)([C@H]4CC[C@](O)(CC)[C@H](C)O4)O3)O2)[C@H](C)C[C@@H]1C | 32 µg/mL
2. COc1c(N2C[C@@H]3CCCN(C(=O)Cn4cc(CN5C(=O)C(=O)c6ccccc65)nn4)[C@@H]3C2)c(F)cc2c(=O)c(C(=O)O)cn(C3CC3)c12 | 1 µg/mL
3. CO/N=C1\C(=O)N(Cc2cn(CC(=O)N3CCC[C@H]4CN(c5c(F)cc6c(=O)c(C(=O)O)cn(C7CC7)c6c5OC)C[C@H]43)nn2)c2ccc(C)cc21 | 1 µg/mL
4. COc1c(N2C[C@@H]3CCCN[C@@H]3C2)c(F)cc2c(=O)c(C(=O)O)cn(C3CC3)c12 [MOXIFLOXACIN] | 8 µg/mL

====

- assay.protocol: Cytotoxicity against CHO cells
- Format: cell-based, Cricetulus griseus
- conditions.used: chinese hamster
CC50 values by entry
reported.property: CC50 (µg/mL)

1) CO/N=C1\C(=O)N(Cc2cn(CC(=O)N3CCC[C@H]4CN(c5c(F)cc6c(=O)c(C(=O)O)cn(C7CC7)c6c5OC)C[C@H]43)nn2)c2ccc(C)cc21 | 32
2) COc1c(N2C[C@@H]3CCCN(C(=O)Cn4cc(CN5C(=O)C(=O)c6ccccc65)nn4)[C@@H]3C2)c(F)cc2c(=O)c(C(=O)O)cn(C3CC3)c12 | 64

====

- Test system: Staphylococcus aureus
- assay.protocol: Antibiofilm activity against methicillin-resistant Staphylococcus aureus ATCC BAA-44 incubated for 24 hrs by crystal violet-staining based assay
- Type: functional, organism-based
- conditions.used: ATCC BAA-44, 24 h
IC50 values by entry
reported.property: IC50 (µM)

1. COc1ccc(-c2[nH]c(N)nc2CCCCCc2cn(C/C(C)=C\c3ccccc3)nn2)cc1 | 1.34
2. C/C(=C/c1ccccc1)Cn1cc(CCCCCc2nc(N)[nH]c2-c2ccc(-c3ccccc3)cc2)nn1 | 1.34
3. C/C(=C/c1ccccc1)Cn1cc(CCCCCc2nc(N)[nH]c2-c2ccc(C(C)C)cc2)nn1 | 1.34
4. CCCCCCc1ccc(C(=O)NCCn2cc(CCCCCc3c[nH]c(N)n3)nn2)cc1 | 0.7
5. C/C(=C/CC1CCCCC1)Cn1cc(CCCCCc2nc(N)[nH]c2-c2ccccc2)nn1 | 1.42
6. C/C(=C/c1ccccc1)Cn1cc(CCCCCc2nc(N)[nH]c2-c2cc(F)cc(F)c2)nn1 | 1.34
7. C/C(=C/c1ccccc1)Cn1cc(CCCCCc2nc(N)[nH]c2-c2ccc(F)cc2)nn1 | 1.34
8. CCCc1ccc(/C=C(/C)Cn2cc(CCCCCc3nc(N)[nH]c3-c3ccccc3)nn2)cc1 | 1.42
9. CCCCCCCCCCCC/C=C(/C)Cn1cc(CCCCCc2nc(N)[nH]c2-c2ccccc2)nn1 | 1.42
